Measured IC50 accompanies every entry in the list below.
System tested: GR (Homo sapiens)
Construct: expressed in transfected cells; host or cells: CHO-K1
Sequence (P04150 whole entry): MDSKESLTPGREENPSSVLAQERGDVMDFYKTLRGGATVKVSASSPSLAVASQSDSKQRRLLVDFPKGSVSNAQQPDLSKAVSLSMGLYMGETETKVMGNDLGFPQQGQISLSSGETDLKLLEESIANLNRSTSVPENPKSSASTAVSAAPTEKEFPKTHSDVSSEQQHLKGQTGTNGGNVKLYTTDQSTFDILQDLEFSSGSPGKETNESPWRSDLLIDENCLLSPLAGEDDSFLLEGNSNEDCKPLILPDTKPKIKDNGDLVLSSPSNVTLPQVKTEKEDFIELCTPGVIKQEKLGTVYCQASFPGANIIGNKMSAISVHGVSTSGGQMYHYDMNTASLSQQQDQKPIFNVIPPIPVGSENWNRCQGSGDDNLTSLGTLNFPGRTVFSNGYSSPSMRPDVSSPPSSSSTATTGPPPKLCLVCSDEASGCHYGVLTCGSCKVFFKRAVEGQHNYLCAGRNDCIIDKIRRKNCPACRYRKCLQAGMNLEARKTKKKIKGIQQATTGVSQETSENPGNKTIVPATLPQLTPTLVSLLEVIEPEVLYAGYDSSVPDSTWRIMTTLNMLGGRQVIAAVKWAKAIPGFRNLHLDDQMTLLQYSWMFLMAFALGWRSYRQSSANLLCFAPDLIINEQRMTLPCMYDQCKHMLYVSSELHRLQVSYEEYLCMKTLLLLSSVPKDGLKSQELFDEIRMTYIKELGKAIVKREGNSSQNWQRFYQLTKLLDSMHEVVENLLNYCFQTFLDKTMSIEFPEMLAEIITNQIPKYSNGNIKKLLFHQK
Procedure text: In Vitro GR Luciferase Reporter Assay (antagonist mode, CHO-K1-GR-MMTV-Luc reporter cells)
Format: cell-based
Condition description: antagonist assay with 10 nM Dexamethasone, 18-24 hours

{"Compound structure": "Cc1ccc(S(=O)(=O)[C@H]2CCC3=Cc4c(cnn4-c4ccc(F)cc4)C[C@]3(C(=O)c3nccs3)C2)cc1", "Measurement": "≤ 0.1 µM"}

Tell me the measured IC50 of `Cc1ccc(C(=O)[C@]23Cc4cnn(-c5ccc(F)cc5)c4C=C2CC[C@H](S(=O)(=O)c2ccccn2)C3)nc1` , please.
≤ 0.1 µM

Item under review: `O=C(c1ccc(C(F)(F)F)cn1)[C@]12Cc3cnn(-c4ccc(F)cc4)c3C=C1CC[C@H](S(=O)(=O)c1ccc(F)cc1)C2` . Reported IC50?
≤ 0.1 µM
